// reported TGI for each item listed
# Tested on: NCI-H226 lung
# measurementNotes: NCI tumour cell line growth inhibition, 48 h

{"columns": ["compound", "relation", "TGI / µM"],
 "data": [
  ["Cc1cccc(/C=N/NC(=S)NCc2ccccn2)n1", ">", 100],
  ["COc1cc2cc(Oc3ccc(NC(=O)Nc4cccc(C(F)(F)F)c4)cc3)c(C)nc2cc1OCCN1CCCCC1", "=", 4.62],
  ["CC1=C(C(=O)Nc2ccccc2)C(c2ccc3c(c2)OCO3)C(C(=O)Nc2ccccc2)=C(C)N1", ">", 100],
  ["O=C(NCCN1C(=O)CN=C(c2ccc(Cl)cc2)c2cc(Cl)ccc21)OCc1ccccc1", "=", 35.5],
  ["O/N=c1/ccn(O)c2ccccc12", "=", 7.14],
  ["CC(=O)[CH-]C(=O)c1ccccc1.CC(=O)[CH-]C(=O)c1ccccc1.CCN(CC)CC[O-].CCN(CC)CC[O-].Cl.[Ti+4]", "=", 62.4],
  ["S=c1[nH]nc(COc2ccc(Cl)cc2)o1", ">", 100],
  ["O=C1C2CC(Cl)C(SSC3CC4C(=O)N(SC(Cl)(Cl)C(Cl)Cl)C(=O)C4CC3Cl)CC2C(=O)N1SC(Cl)(Cl)C(Cl)Cl (centres undefined)", "=", 26.4],
  ["O=C(c1ccccc1)c1nn(-c2ccc(Cl)cc2)c2nc3nc(-c4ccccc4)cc(=O)n3nc12", ">", 100]
]}
